In this section, each of the compounds is paired with its reported log10(ED50).
- Test system: Mus musculus
- experimentSummary: In vivo efficacy on systemic infections caused by Pseudomonas aeruginosa A9843 in mice after peroral administration
- Assay type: functional
- experimentalConditions: po, read-out: PD50
metricName: log10(ED50) (log10 of the value in mg/kg)

- molSmiles: "C[C@@H]1N[C@@H]2C[C@H]1N(c1nc3c(cc1F)c(=O)c(C(=O)O)cn3C(C)(C)C)C2.Cl"
  log10(ED50): 0.43
- molSmiles: "CN1C[C@H]2C[C@@H]1CN2c1nc2c(cc1F)c(=O)c(C(=O)O)cn2C(C)(C)C"
  log10(ED50): 1.01
- molSmiles: "CC(C)(C)n1cc(C(=O)O)c(=O)c2cc(F)c(N3C[C@H]4C[C@@H]3CN4)nc21"
  log10(ED50): 0.67
- molSmiles: "Cc1c(F)c(N2C[C@H]3C[C@@H]2[C@H](C)N3)nc2c1c(=O)c(C(=O)O)cn2C1CC1.Cl"
  log10(ED50): -0.47
- molSmiles: "C[C@H]1N[C@@H]2C[C@H]1N(c1nc3c(cc1F)c(=O)c(C(=O)O)cn3C(C)(C)C)C2.Cl"
  log10(ED50): 0.98
- molSmiles: "C[C@H]1[C@H]2C[C@H](CN2)N1c1nc2c(cc1F)c(=O)c(C(=O)O)cn2C(C)(C)C.Cl"
  log10(ED50): 1.34
- molSmiles: "O=C(O)c1cn(C2CC2)c2cc(N3CCNCC3)c(F)cc2c1=O"
  log10(ED50): 0.41
- molSmiles: "C[C@@H]1[C@H]2C[C@H](CN2)N1c1nc2c(cc1F)c(=O)c(C(=O)O)cn2C(C)(C)C.Cl"
  log10(ED50): 1.34
- molSmiles: "Cc1c(F)c(N2C[C@H]3C[C@@H]2CN3)nc2c1c(=O)c(C(=O)O)cn2C1CC1"
  log10(ED50): 0.43

----------
- experimentSummary: Partition coefficient (logD)
- Assay type: physicochemical
- experimentalConditions: octanol/water
In this section, each of the compounds is paired with its reported logD.

- molSmiles: "Cc1c(F)c(N2C[C@H]3C[C@@H]2[C@@H](C)N3)nc2c1c(=O)c(C(=O)O)cn2C1CC1.Cl"
  logD: 0.71
- molSmiles: "CC(C)(C)n1cc(C(=O)O)c(=O)c2cc(F)c(N3C[C@@]4(C)C[C@@H]3CN4)nc21.Cl"
  logD: 0.02
- molSmiles: "CC(C)(C)n1cc(C(=O)O)c(=O)c2cc(F)c(N3C[C@H]4C[C@@H]3CN4)nc21"
  logD: -0.41
- molSmiles: "Cc1c(F)c(N2C[C@H]3C[C@@H]2[C@H](C)N3)nc2c1c(=O)c(C(=O)O)cn2C(C)(C)C.Cl"
  logD: 1.3

----------
- experimentSummary: Solubility (water, 22C, pH 7.2)
- Format: physicochemical
- experimentalConditions: read-out: S
Classification field: enter true (1) for solubility values not below 20 µg/mL, false (0) for values below it.

- molSmiles: "Cc1c(F)c(N2C[C@H]3C[C@@H]2[C@@H](C)N3)nc2c1c(=O)c(C(=O)O)cn2C1CC1.Cl"
  categoryLabel: "true (1)"
- molSmiles: "CC(C)(C)n1cc(C(=O)O)c(=O)c2cc(F)c(N3C[C@H]4C[C@@H]3CN4)nc21"
  categoryLabel: "true (1)"
- molSmiles: "C[C@H]1N[C@@H]2C[C@H]1N(c1nc3c(cc1F)c(=O)c(C(=O)O)cn3C(C)(C)C)C2.Cl"
  categoryLabel: "true (1)"
- molSmiles: "Cc1c(F)c(N2C[C@H]3C[C@@H]2[C@H](C)N3)nc2c1c(=O)c(C(=O)O)cn2C1CC1.Cl"
  categoryLabel: "false (0)"
- molSmiles: "Cc1c(F)c(N2[C@H]3CN[C@H](C3)[C@H]2C)nc2c1c(=O)c(C(=O)O)cn2C1CC1.Cl"
  categoryLabel: "true (1)"
- molSmiles: "C[C@H]1[C@H]2C[C@H](CN2)N1c1nc2c(cc1F)c(=O)c(C(=O)O)cn2C(C)(C)C.Cl"
  categoryLabel: "true (1)"
- molSmiles: "CC(C)(C)n1cc(C(=O)O)c(=O)c2cc(F)c(N3C[C@@]4(C)C[C@@H]3CN4)nc21.Cl"
  categoryLabel: "true (1)"
- molSmiles: "Cc1c(F)c(N2C[C@H]3C[C@@H]2[C@H](C)N3)nc2c1c(=O)c(C(=O)O)cn2C(C)(C)C.Cl"
  categoryLabel: "true (1)"
- molSmiles: "C[C@@H]1N[C@@H]2C[C@H]1N(c1nc3c(cc1F)c(=O)c(C(=O)O)cn3C(C)(C)C)C2.Cl"
  categoryLabel: "true (1)"
- molSmiles: "C[C@@H]1N[C@@H]2C[C@H]1N(c1nc3c(cc1F)c(=O)c(C(=O)O)cn3-c1ccc(F)cc1F)C2.Cl"
  categoryLabel: "false (0)"
- molSmiles: "CN1C[C@H]2C[C@@H]1CN2c1nc2c(cc1F)c(=O)c(C(=O)O)cn2C(C)(C)C"
  categoryLabel: "true (1)"
- molSmiles: "C[C@@H]1[C@H]2C[C@H](CN2)N1c1nc2c(cc1F)c(=O)c(C(=O)O)cn2C(C)(C)C.Cl"
  categoryLabel: "true (1)"
- molSmiles: "Cc1c(F)c(N2[C@H]3CN[C@H](C3)[C@@H]2C)nc2c1c(=O)c(C(=O)O)cn2C1CC1.Cl"
  categoryLabel: "true (1)"
- molSmiles: "CC(C)(C)n1cc(C(=O)O)c(=O)c2cc(F)c(N3C[C@H]4C[C@]3(C)CN4)nc21.Cl"
  categoryLabel: "false (0)"
